Recorded values, source ChEMBL document CHEMBL1123965.

# System: Mus musculus
# assay.comment: Anticonvulsant activity in mouse maximal metrazole seizure test 1 hr following p.o. administration.
# Format: functional
# run.parameters: po
Our labelling divides records by ED50 into ranges: bin 0: < 50 mg/kg; bin 1: ≥ 50 mg/kg and < 90 mg/kg; bin 2: ≥ 90 mg/kg

Example entries and their recorded answers appear below.
C/C(=N/Cc1ccccc1)Nc1nnc(-c2ccccc2C)s1: bin 2
Cc1ccccc1-c1nnc(/N=C/Nc2nnc(-c3ccccc3C)s2)s1: bin 2
CC(=N)Nc1nnc(-c2ccccc2C(F)(F)F)s1: bin 0

stdin: Just checking, what class would you give CCCC/N=C(/C)Nc1nnc(-c2ccccc2C(F)(F)F)s1 here?
stdout: bin 0

stdin: Now the compound CC(=N)Nc1nnc(-c2ccccc2C)s1
stdout: bin 1

stdin: Another compound to look at: CCN(CC)/C(C)=N/c1nnc(-c2ccccc2C)s1
stdout: bin 1

stdin: Request: C/C(=N\c1nnc(-c2ccccc2C)s1)N1CCOCC1
stdout: bin 2

stdin: Next up: c1ccc(-c2ccccc2-c2nnc(C3=NCCN3)s2)cc1
stdout: bin 1

###

Record form. Attribute: ED50. Fill in for each entry.
# Test system: Mus musculus
# assay.comment: Anticonvulsant activity in mouse maximal metrazole seizure test 1 hr following p.o. administration.
# Type: functional
# run.parameters: po

CC(=N)Nc1nnc(Cc2ccccc2)s1: 50 mg/kg
CCCC/N=C(\N)c1nnc(-c2ccccc2C)s1: ~142 mg/kg

stdin: Returns the measured ED50 for the input compound. Input: CCCC/N=C(/C)Nc1nnc(-c2ccccc2-c2ccccc2)s1
stdout: 90 mg/kg
